test: Pharmacokinetic evaluation in mice; format: in vivo, CD-1 mice; details: male, CD-1, mouse, plasma, intravenous injection 0.5 mg/kg, read-out: Clearance CL
Where a name gives a salt, the structure may show the parent alone.
Quick reference: clearance of the listed items.

Compound	clearance
Cc1cc(Nc2ncnn3cc(OCCN4CCC(F)(F)C4)c(C)c23)c(=O)n2c1C(=O)NC21CCCCC1	21.8 mL/min/kg
Cc1cc(Nc2ncnn3cc(OCCN4CCCC4)c(C)c23)c(=O)n2c1C(=O)NC21CCCCC1 [Compound 1 (hydrochloride)]	33.3 mL/min/kg

###

system: eIF4E phosphorylation of HCT116 cell strain; assay: Inhibition of eIF4E phosphorylation in HCT116 cell strain (AlphaLISA p-eIF4E Ser209); assay type: cell-based; conditions: Homo sapiens, HCT-116; HCT116 cells, 3 h incubation
Structures can show the parent of a compound that is named as a salt.
Observed property: IC50

Molecule	Observed property	Experimental value
Cc1cc(Nc2ncnn3cc(OCC4CCN(C)C4)c(C)c23)c(=O)n2c1C(=O)NC21CCCCC1 (stereo not drawn) [Compound 16 (hydrochloride)]	IC50	2.8 nM
Cc1cc(Nc2ncnn3cc(OCCN4CCCC4)c(C)c23)c(=O)n2c1C(=O)NC21CCCC1 [Compound 7 (hydrochloride)]	IC50	6.5 nM
Cc1c(OCCN2CCCC2)cn2ncnc(Nc3cc(F)c4n(c3=O)C3(CCCCC3)NC4=O)c12 [Compound 5 (hydrochloride)]	IC50	9.5 nM
Cc1c(OCCN2CCCC2)cn2ncnc(Nc3cc(Cl)c4n(c3=O)C3(CCCCC3)NC4=O)c12 [Compound 6 (hydrochloride)]	IC50	0.66 nM
Cc1c(OCCN2CCCC2)cn2ncnc(Nc3ccc4n(c3=O)C3(CCCCC3)NC4=O)c12 [Compound 4 (hydrochloride)]	IC50	14 nM
Cc1cc(Nc2ncnn3cc(OCCN4CCCC4)c(C)c23)c(=O)n2c1C(=O)NC21CCCCC1 [Compound 1 (hydrochloride)]	IC50	3.46 nM
Cc1cc(Nc2ncnn3cc(OCCN4CCCC4)c(C)c23)c(=O)n2c1C(=O)NC21CCC(F)(F)CC1 [Compound 9 (hydrochloride)]	IC50	12 nM
Cc1cc(Nc2ncnn3cc(OC[C@H](C)N4CCCC4)c(C)c23)c(=O)n2c1C(=O)NC21CCCC1	IC50	10.5 nM
Cc1cc(Nc2ncnn3cc(OCCN4CCCC4)c(C)c23)c(=O)n2c1C(=O)NC2(C)C [Compound 8 (hydrochloride)]	IC50	24 nM
Cc1c(OCCN2CCCC2)cn2ncnc(Nc3cc(Cl)c4n(c3=O)C3(CCCC3)NC4=O)c12 [Compound 10 (hydrochloride)]	IC50	3.1 nM
Cc1cc(Nc2ncnn3cc(OCCN4CCC(F)(F)C4)c(C)c23)c(=O)n2c1C(=O)NC21CCCC1	IC50	8.6 nM
Cc1cc(Nc2ncnn3cc(OCCN4CCC(F)(F)C4)c(C)c23)c(=O)n2c1C(=O)NC21CCCCC1	IC50	18.9 nM
